# kd mutant/kd wt annotations
target: T1, human TGFβ1 (human, UniProt P01137 279-390); assay: Biacore off-rate vs wt GC1008
T1 construct: also called TGFβ1 homodimer
T1 sequence (P01137 279-390 limits assumed): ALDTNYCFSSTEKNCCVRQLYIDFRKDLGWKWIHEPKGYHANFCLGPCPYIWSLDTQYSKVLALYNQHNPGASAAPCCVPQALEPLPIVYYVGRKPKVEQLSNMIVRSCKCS
Reply with just the number.

Which measured kd mutant/kd wt value corresponds to E74R (antibody, V domains shown, GC1008 IgG4 variant) VH: QVQLVQSGAEVKKPGSSVKVSCKASGYTFSSNVISWVRQAPGQGLEWMGGVIPIVDIANYAQRFKGRVTITADRSTSTTYMELSSLRSEDTAVYYCASTLGLVLDAMDYWGQGTLVTVSS VL: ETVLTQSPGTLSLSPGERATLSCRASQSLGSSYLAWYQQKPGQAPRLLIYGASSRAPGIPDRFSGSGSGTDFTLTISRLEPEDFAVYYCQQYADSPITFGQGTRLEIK ?
2

Which measured kd mutant/kd wt value corresponds to Y27H (antibody, V domains shown, GC1008 IgG4 variant) VH: QVQLVQSGAEVKKPGSSVKVSCKASGHTFSSNVISWVRQAPGQGLEWMGGVIPIVDIANYAQRFKGRVTITADESTSTTYMELSSLRSEDTAVYYCASTLGLVLDAMDYWGQGTLVTVSS VL: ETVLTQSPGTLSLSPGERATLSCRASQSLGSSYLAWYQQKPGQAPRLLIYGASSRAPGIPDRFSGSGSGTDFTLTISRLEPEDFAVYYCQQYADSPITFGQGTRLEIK ?
1.5

Which measured kd mutant/kd wt value corresponds to N32E (antibody, V domains shown, GC1008 IgG4 variant) VH: QVQLVQSGAEVKKPGSSVKVSCKASGYTFSSEVISWVRQAPGQGLEWMGGVIPIVDIANYAQRFKGRVTITADESTSTTYMELSSLRSEDTAVYYCASTLGLVLDAMDYWGQGTLVTVSS VL: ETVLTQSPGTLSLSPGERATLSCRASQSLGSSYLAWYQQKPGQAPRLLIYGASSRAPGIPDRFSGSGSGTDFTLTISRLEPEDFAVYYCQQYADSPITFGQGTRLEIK ?
0.6

Which measured kd mutant/kd wt value corresponds to V55F (antibody, V domains shown, GC1008 IgG4 variant) VH: QVQLVQSGAEVKKPGSSVKVSCKASGYTFSSNVISWVRQAPGQGLEWMGGVIPIFDIANYAQRFKGRVTITADESTSTTYMELSSLRSEDTAVYYCASTLGLVLDAMDYWGQGTLVTVSS VL: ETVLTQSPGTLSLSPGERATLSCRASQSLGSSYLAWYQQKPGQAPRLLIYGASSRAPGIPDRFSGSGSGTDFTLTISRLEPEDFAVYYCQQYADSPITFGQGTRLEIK ?
1.2

Which measured kd mutant/kd wt value corresponds to I54W (antibody, V domains shown, GC1008 IgG4 variant) VH: QVQLVQSGAEVKKPGSSVKVSCKASGYTFSSNVISWVRQAPGQGLEWMGGVIPWVDIANYAQRFKGRVTITADESTSTTYMELSSLRSEDTAVYYCASTLGLVLDAMDYWGQGTLVTVSS VL: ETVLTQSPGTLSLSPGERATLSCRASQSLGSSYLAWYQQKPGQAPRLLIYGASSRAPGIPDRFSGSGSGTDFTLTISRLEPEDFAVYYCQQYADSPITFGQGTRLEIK ?
2

Just for reference, patent US20170342144A1 is where these values come from.
